Please provide measured inhibition ratio for the entries that follow.
TESTED_ON: human B7-H3 protein (human) (UniProt Q5ZPR3)
ASSAY_COMMENT: Octet (BLI) epitope binning on captured human B7-H3; competitor AHP05562
Quick reminder: number only, in %, skip the unit.

# inhibition ratio of 81C8A1 (antibody, V domains shown) VH: QVTLKESGPGILQPSQTLSLTCSFSGFSLSTSGMGVSWIRQPPGKGLEWLAHIYWDDDRRYNPSLKSRLTISRDTSRNQVFLQITTVDTADTATYYCARSPYGSEAYWGQGTLVIVSA VL: QIVLSQSPTILSAFPGEKVTMTCRASSSVSFIQWYQQKSGSSPKPWIYSPSNLASGVPTRFSGSGSGTSYSLTIGRVEAEDAATYYCQQWSSYPWTFGGGTKVEIK = 90.6

Kindly note the recorded inhibition ratio for AHP06358 (antibody, V domains shown) VH: EVQLVQSGAEVKKPGASVKVSCKASGYTFTSYGISWVRQAPGQGLEWMGWISAYNGNTNYAQKLQGRVTMTTDTSTSTAYMELRSLRSDDTAVYYCARDSPLQIAVAGYYYGMDVWGQGTTVTVSS VL: NFMLTQPHSVSESPGKTVTISCTRSSGSIVSGYVQWYQQRPGSAPSTVIYEHNQRPSGVPDRFSGSIDSSSNSASLTISGLRTEDEADYYCQSYDSRNMIFGGGTKLTVL , which is 91.7

# inhibition ratio of AHP06345 (antibody, V domains shown) VH: QVQLVQSGAEVKKPGESLRISCKGSGYSFTSYWISWVRQMPGKGLEWMGRIDPSDSYTNYSPSFQGHVTISADKSISTAYLQWSSLKASDTAMYYCARHTGYYGSGIGMDVWGQGTLVTVSS VL: HVILTQPPSVSAAPGQKVTISCSGSSSNIGNNYVSWYRQLPGTAPKLLIYDNNQRPSGIPDRFSGSKSGTSATLGITGLQTGDEADYYCATWDSSLGVVVFGGRTKLTVL = -6.36

inhibition ratio reported for this binder 216E7A9 (antibody, V domains shown) VH: DVQLVESGGGLVQPGGSRKLSCAASGFTFSSFGMHWVRQAPEKGLEWVAYISSGSSTIYYADTVRGRFTISRDNPKNTLFLQMTSLRSEDTAMYYCARGGDYYYALDYWGQGTSVTVSS VL: DIQMTQSPASLSVSVGETVTITCRASENIHSNLEWYQQKQGKSPQLLVYAATNLADGVPSRFSGSGSGTQYSLKINSLQSEDFGSYYCQHFWGTPFTFGSGTKLEIK : 92.3
